experimentalTarget: Gal(b1-4)GlcNAc(b1-3)Gal(b1-4)GlcNAc(b1-3)[Gal(b1-4)GlcNAc(b1-3)Gal(b1-4)GlcNAc(b1-6)]GalNAc
experiment: glycan array binding signal (z-score within array); higher = stronger binding
settings: glycan notation: IUPAC condensed, linker removed
Only a selection was taken, and the strongest signals are over-represented in it overall.
reportedEndpoint: glycan array binding signal (z-score)
Numbers only.

FGFR2-Fc (protein) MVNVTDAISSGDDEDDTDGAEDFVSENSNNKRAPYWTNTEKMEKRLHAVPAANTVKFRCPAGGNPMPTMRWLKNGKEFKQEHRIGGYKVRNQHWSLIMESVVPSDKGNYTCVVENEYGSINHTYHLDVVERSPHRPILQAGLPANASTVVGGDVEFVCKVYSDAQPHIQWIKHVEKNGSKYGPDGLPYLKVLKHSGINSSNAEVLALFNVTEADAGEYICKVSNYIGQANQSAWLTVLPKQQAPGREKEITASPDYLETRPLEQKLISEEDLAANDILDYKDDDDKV; 0.9
Si Bti9 1b-V5-his (Solanum lycopersicum) (protein) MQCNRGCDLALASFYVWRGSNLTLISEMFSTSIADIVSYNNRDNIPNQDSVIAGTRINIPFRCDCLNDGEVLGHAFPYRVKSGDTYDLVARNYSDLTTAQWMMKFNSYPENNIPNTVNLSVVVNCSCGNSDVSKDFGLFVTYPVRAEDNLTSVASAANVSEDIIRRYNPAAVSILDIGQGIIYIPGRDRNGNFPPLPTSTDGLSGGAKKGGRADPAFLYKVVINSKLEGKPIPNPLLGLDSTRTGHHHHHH; 0.207

Which glycan array binding signal (z-score) is listed for MPA (Maclura pomifera), P18674 (protein) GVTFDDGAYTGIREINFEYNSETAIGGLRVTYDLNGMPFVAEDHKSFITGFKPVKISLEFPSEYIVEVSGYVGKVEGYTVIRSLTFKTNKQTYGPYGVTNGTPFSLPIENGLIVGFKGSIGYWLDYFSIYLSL ?
4
